Biological target: T1, rh integrin α4β7 (R&D Systems #5397-A30) (human, UniProt P13612 34-970; P26010 20-723)
T1 construct: bought; coated on a nickel coated plate; also called immobilized α4β7; immobilized α4β7 integrin protein
Assay: competition ELISA vs MAdCAM-1
Bridge positions count the residues as written; N and C are the ends. Square brackets hold non-standard residues; d marks the D form. Phe(3,4-Cl2) = N[C@@H](Cc1ccc(Cl)c(Cl)c1)C(=O)O; NMeR = CN[C@@H](CCCNC(=N)N)C(=O)O; Pen = CC(C)(S)[C@H](N)C(=O)O
MEASUREMENT TYPE: IC50

Here's what some known entries look like.
>>> data_value("Ac-[Pen][NMeR]SDTL[Pen][Phe(3,4-Cl2)]E[dK]-NH2 (disulfide 1-7; not fully specified (residue 10); printed as (Ac Pen N-Me-R S D T L Pen F(3,4-diCl) E k NH2)2 DIG, disulfide Pen-Pen; also: dimer, two subunits joined by DIG linker) [SEQ ID NO: 43]")
"≤ 10 nM"
>>> data_value("cyclo([Pen][NMeR]SDTL[Pen]WE) (disulfide 1-7; SMILES CC(C)C[C@@H]1NC(=O)[C@H]([C@@H](C)O)NC(=O)[C@H](CC(=O)O)NC(=O)[C@H](CO)NC(=O)[C@H](CCCNC(=N)N)N(C)C(=O)[C@H]2NC(=O)[C@H](CCC(=O)O)NC(=O)[C@H](Cc3c[nH]c4ccccc34)NC(=O)[C@@H](NC1=O)C(C)(C)SSC2(C)C) [SEQ ID NO: 144]")
"364 nM"

Fill in: IC50 of Ac-[Pen][NMeR]SDTL[Pen]W[dE][dK]-NH2 (disulfide 1-7; not fully specified (residue 10); printed as (Ac Pen N-Me-R S D T L Pen W e k NH2)2 DIG, disulfide Pen-Pen; also: homodimer via DIG linker) [SEQ ID NO: 68] is ___
≤ 10 nM
